target_entity: Neuronal acetylcholine receptor; alpha4/beta2 (Rattus norvegicus, UniProt P09483+P12390)
Sequence (P09483 whole entry): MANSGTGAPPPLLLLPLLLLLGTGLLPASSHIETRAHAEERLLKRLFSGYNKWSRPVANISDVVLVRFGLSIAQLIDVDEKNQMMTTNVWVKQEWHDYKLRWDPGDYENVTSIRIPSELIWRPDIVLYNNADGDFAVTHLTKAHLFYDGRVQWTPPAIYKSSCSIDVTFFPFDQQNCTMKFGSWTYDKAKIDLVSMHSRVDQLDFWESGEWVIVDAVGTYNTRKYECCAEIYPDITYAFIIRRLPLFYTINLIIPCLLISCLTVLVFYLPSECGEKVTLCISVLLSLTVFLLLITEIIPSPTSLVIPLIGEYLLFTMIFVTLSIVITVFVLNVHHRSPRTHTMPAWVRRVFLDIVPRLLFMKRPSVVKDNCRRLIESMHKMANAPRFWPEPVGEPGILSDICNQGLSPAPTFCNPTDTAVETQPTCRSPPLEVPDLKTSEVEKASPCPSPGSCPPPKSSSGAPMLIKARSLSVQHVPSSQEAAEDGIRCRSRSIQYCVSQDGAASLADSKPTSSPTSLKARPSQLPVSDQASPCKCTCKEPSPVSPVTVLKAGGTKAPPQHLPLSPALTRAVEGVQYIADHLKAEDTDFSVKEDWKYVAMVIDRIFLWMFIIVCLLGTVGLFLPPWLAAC
Sequence (P12390 whole entry): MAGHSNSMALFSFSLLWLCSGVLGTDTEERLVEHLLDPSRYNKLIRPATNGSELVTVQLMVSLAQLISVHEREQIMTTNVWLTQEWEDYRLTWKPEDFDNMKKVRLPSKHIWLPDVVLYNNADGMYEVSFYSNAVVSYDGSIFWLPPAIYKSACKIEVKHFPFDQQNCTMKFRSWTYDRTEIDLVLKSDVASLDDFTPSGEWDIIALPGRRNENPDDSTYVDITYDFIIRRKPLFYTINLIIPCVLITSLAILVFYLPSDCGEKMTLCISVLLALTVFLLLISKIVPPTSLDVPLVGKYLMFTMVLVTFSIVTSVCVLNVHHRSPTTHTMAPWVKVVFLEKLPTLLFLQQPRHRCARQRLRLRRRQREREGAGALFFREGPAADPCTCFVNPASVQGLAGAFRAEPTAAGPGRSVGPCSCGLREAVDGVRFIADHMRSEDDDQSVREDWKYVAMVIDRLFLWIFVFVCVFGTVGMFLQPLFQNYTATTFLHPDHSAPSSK
assay_details: Displacement of [3H]cytisine from Nicotinic acetylcholine receptor alpha4-beta2 in rat forebrain
Answer each item with its documented pKi.
Reminder that pKi is minus the log10 of a molar concentration.

IN: Quick one: pKi for `c1cc2c(cn1)[C@]1(CCCN1)CC2` ?
OUT: 6.27

IN: Quick one: pKi for c1cncc(C2C3CCN2CC3)c1 (single isomer, unassigned; (-)) ?
OUT: 8.72

IN: Quick one: pKi for `CN1CCC[C@]12CCc1ccncc12` ?
OUT: 8.32

IN: Quick one: pKi for `c1cc2c(cn1)[C@@]1(CCCN1)CC2` ?
OUT: 7.27

IN: Quick one: pKi for `CN1CCC[C@@]12CCc1ccncc12` ?
OUT: 6.83

IN: Quick one: pKi for c1cc2c(cn1)C1N3CCCC1(CC3)C2 (stereo in doubt; (-)4b) ?
OUT: 5.98
